# credit: patent US20110118131A1

molecular target: T1, IL-1beta (UniProt P01584 117-269); experiment: Biacore
T1 construct: also called IL-1β

# binder, output_unit, fold difference in affinity vs parental
rows = [
    ("XPA23 Fab, heavy chain T58Y (Fab, V domains shown) VH: EVQLLESGGGLVQPGGSLRLSCAASGFTFSKYFMFWVRQAPGKGLEWVSVISPSGGMYRYADSVKGRFTISRDNSKNTLYLQMNSLRAEDTAVYYCARVGYGGNSDYWGQGTLVTVSS VL: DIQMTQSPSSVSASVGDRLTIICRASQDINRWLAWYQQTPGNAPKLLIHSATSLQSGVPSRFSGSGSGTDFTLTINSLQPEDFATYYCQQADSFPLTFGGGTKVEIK", "fold", 1.01),
    ("XPA23 Fab, heavy chain T58S (Fab, V domains shown) VH: EVQLLESGGGLVQPGGSLRLSCAASGFTFSKYFMFWVRQAPGKGLEWVSVISPSGGMSRYADSVKGRFTISRDNSKNTLYLQMNSLRAEDTAVYYCARVGYGGNSDYWGQGTLVTVSS VL: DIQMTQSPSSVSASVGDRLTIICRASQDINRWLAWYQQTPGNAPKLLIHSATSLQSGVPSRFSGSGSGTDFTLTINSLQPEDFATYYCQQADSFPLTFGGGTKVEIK", "fold", 0.82),
    ("XPA23 Fab, heavy chain V50N (Fab, V domains shown) VH: EVQLLESGGGLVQPGGSLRLSCAASGFTFSKYFMFWVRQAPGKGLEWVSNISPSGGMTRYADSVKGRFTISRDNSKNTLYLQMNSLRAEDTAVYYCARVGYGGNSDYWGQGTLVTVSS VL: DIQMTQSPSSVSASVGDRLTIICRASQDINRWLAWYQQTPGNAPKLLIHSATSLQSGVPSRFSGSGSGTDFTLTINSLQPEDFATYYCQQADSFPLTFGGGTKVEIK", "fold", 0.03),
]
